test system: BDF1 mice, B16 melanoma ip, median survival T/C; test: NCI In Vivo Anticancer Drug Screen. Data for tumor model B16 Melanoma (intraperitoneal) in B6D2F1 (BDF1) mice; details: endpoint: median survival time; dose: 12.5 mg/kg/injection; schedule: Q01DX009 (ip); vehicle: saline with Tween-80; higher = longer survival
Toxic doses and inconclusive results are not listed.
MEASURED_PARAMETER: T/C

compound=CC1(C)N=C(N)N=C(N)N1c1ccc(OCCCCNC(=O)c2ccc(S(=O)(=O)F)cc2)c(Cl)c1 measured_parameter=T/C assay_value="108 % of control"
compound="CCOC(Cl)CCl (stereo unspecified)" measured_parameter=T/C assay_value="97 % of control"
compound=CN1CCN(Cc2nc3cccc4c3c([n+]2[O-])-c2ccccc2-4)CC1 measured_parameter=T/C assay_value="101 % of control"
compound="COc1ccc(Cl)cc1NC(=O)C(Br)C(Br)C(=O)O (stereo unspecified)" measured_parameter=T/C assay_value="102 % of control"
compound=O=C1N=C(Oc2ccccc2)SC1=O measured_parameter=T/C assay_value="101 % of control"
compound="CC(C)=CC1C(C(=O)OCc2ccc(C)cc2C)C1(C)C (stereo unspecified)" measured_parameter=T/C assay_value="104 % of control"

Recorded values, source PubChem BioAssay AID192.
